Data origin: paper PMC9482650

# subject.of.test: GOPC, Q9HD26
# test.description: holdup assay
# Design: key: below the threshold = too weak to quantify, mostly under pKd 3.1 to 4
# conditions.used: plain residues with an end cap or a label only (N-terminal biotin on a linker: ado-ado)
measured.metric: pKd

Known results for binders:
binder="PEYLGLDVPV [ERBB2, P04626]" measured_metric=pKd endpoint_value="below the threshold"
binder="PPYRHRNTVV [ERBB4, Q15303]" measured_metric=pKd endpoint_value=4.08
binder="QPCFNKLFPL [LPXN, O60711]" measured_metric=pKd endpoint_value="below the threshold"
binder="GNSVLKSTQF [SLC22A12, Q96S37]" measured_metric=pKd endpoint_value="below the threshold"
binder="TPPAAKKSRI [BAZ1A, Q9NRL2]" measured_metric=pKd endpoint_value=4.06

Record DDEDRLVIEI [ZNF831, Q5JPB2] . Reported pKd: below the threshold
